# Test system: SK-MEL-28 melanoma
# protocolDetails: NCI tumour cell line growth inhibition, 48 h
propertyLabel: TGI (µM)
Please reply with the bare figure in µM and do not write the unit itself.

Any idea what TGI was measured for "O=C(Nc1ccc2ncnc(Nc3ccc(Oc4cccc(F)c4)c(Cl)c3)c2c1)c1ccc(CNCCO)cc1" ?
3.08

---

# Test system: SNB-75 CNS
# protocolDetails: NCI tumour cell line growth inhibition, 48 h; in the data active = GI50 below about 0.43 µM; inactive = the rest
Could you please pick one outcome from this set? active, inactive

# count of solved cases: 6
COc1ccc(Cn2cc3c(c2-c2ccc(OC)cc2)CCc2cnoc2-3)cc1	active
CN(C)c1ccc(C(Cc2ccc3ccccc3n2)Cc2ccc3ccccc3n2)cc1	inactive
COc1cc(/C=C/C(=O)c2c(C)nc3ccccc3c2C)ccc1OCCCOc1cc2c(cc1OC)C(=O)N1CCC[C@H]1C=N2	active
COc1cc2c3c(n(CCCI)c(=O)c2cc1OC)-c1cc2c(cc1C3=O)OCO2	inactive
CCC1CCc2nc3sc(C(=O)Nc4cccc(F)c4)c(N)c3cc2C1 (configuration not stated)	inactive
C[C@@H](CO)[C@@H]1CCC=C2CC[C@]3(C)[C@H](CC[C@@H]4[C@@]5(C)CCCNC(C)(C)[C@@H]5CC[C@]43C)[C@H]21	inactive

What outcome does the record of this test show for "Cc1cc(Cl)ccc1NC(=O)c1cc2ccccc2cc1O" ?
inactive
